Assay: glucagon-like peptide 1 release enhancers, primary assay, NCI-H716 cell line, NPC library (AID 1117341)
Conditions: NCI-H716 cells, at 10 µM, stronger effect = higher value
// GLP1 secretion stimulation lookup, one value per entry
Provide only the numeric value, understood in %.

The cases that follow already have their GLP1 secretion stimulation on record.
Molecule	GLP1 secretion stimulation [%]
C[C@H](O)C(=O)Nc1c(I)c(C(=O)NC(CO)CO)c(I)c(C(=O)NC(CO)CO)c1I	0.1
NC(=O)N[C@@H](CCC(=O)O)C(=O)O	-2.5
Cc1nnc(C(=O)NC(C)(C)c2nc(C(=O)NCc3ccc(F)cc3)c(O)c(=O)n2C)o1	-0.3
OC(CCN1CCCCC1)(c1ccccc1)C1CC2C=CC1C2 (stereo not given)	-4
CC1(C)[C@@H]2CC[C@@]1(C)C(=O)C2	-0.1
COc1cc2c(c(OC)c1OC)-c1ccc(OC)c(=O)cc1[C@@H](NC(C)=O)CC2	-3.6

Prompt: Could you share which GLP1 secretion stimulation value was measured for CC(=O)NCc1c(I)c(NC(C)=O)c(I)c(C(=O)O)c1I ?
Response: 0

Prompt: Further, for Cl/C(=C\n1cncn1)c1ccc(Cl)cc1Cl ?
Response: -1.4

Prompt: Would you kindly repeat that for CCCNC(C)C(=O)Nc1c(C)csc1C(=O)OC (stereo not given) ?
Response: -3.4

Prompt: Okay, and CC(C)COC(=O)c1ccc(N)cc1 ?
Response: 0.9

* * *

Test: survival rescue of mitochondrial mutant cells in low glucose, primary screen, MELAS cybrids, Rieske KO mouse fibroblasts, CellTiter-Glo (AID 1508586);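 also: z relative to plate mean and SD of compound and empty wells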
Settings: Rieske KO mouse fibroblast survival, CellTiter-Glo 72 h
Observation Type: z-score
Enter a number only.

Prompt: Please look up its z-score: CCOC(=O)Nc1ccc2c(c1)N(C(=O)CCN1CCOCC1)c1ccccc1S2
Response: 0.145

Prompt: Entry to check: CCCCOC(=O)c1ccc(O)cc1
Response: -0.347

Prompt: Next record, please: CCC1NC(=O)c2cc(S(N)(=O)=O)c(Cl)cc2N1 (centres undefined)
Response: -1.37

* * *

Molecular target: Mitogen-activated protein kinase 7 (Homo sapiens) (UniProt Q13164)
Sequence (Q13164 whole entry, looked up, the tested form may be a part): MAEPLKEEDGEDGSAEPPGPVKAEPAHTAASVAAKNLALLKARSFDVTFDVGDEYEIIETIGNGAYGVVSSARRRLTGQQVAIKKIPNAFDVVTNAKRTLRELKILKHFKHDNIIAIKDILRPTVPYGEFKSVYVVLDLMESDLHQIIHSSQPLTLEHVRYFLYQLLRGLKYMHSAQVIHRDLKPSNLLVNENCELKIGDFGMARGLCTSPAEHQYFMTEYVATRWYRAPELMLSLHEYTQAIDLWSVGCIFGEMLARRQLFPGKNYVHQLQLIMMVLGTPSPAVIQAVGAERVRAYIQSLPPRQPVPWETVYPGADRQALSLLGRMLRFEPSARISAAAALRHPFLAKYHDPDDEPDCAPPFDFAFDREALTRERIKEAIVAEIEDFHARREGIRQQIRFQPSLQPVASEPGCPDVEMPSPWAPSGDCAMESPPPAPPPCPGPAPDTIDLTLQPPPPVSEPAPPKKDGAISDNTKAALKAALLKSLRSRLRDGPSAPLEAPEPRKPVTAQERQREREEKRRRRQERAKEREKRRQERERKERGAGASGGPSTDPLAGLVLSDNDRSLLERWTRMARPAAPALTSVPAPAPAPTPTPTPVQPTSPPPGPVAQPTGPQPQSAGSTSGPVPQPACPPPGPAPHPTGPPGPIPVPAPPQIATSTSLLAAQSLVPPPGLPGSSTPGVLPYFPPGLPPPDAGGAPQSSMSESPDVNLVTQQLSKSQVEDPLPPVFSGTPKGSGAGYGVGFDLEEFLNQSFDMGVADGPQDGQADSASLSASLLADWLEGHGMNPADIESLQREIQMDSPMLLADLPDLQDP
Experiment: ERK5 transactivation activators in reporter cells, primary screen, cell-based, HTS (AID 1508626);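 also: luciferase driven by Gal4-ERK5 fusion binding five Gal4 sites before minimal TATA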
Settings: HeLa Gal4-ERK5 transactivation, 18 h, at 5 µM, stronger effect = higher value
Active and inactive are the calls of the source.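 Rule for the calls: active = luciferase signal above three times the same-plate solvent-only control wells; inactive = the rest.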
Observation Type: luciferase signal

Compound	luciferase signal
COc1cc2ccc(=O)oc2c(O)c1O	76 AU (inactive)
O=C(O[C@@H]1Cc2c(O)cc(O)cc2O[C@@H]1c1cc(O)c(O)c(O)c1)c1cc(O)c(O)c(O)c1	48 AU (inactive)
CC(CCC(=O)O)[C@H]1CCC2C3CC[C@@H]4CC(=O)CC[C@]4(C)C3C=C[C@@]21C (stereo partly specified)	28 AU (inactive)

Prompt: Can you look up the measured luciferase signal of c1coc(CNc2ncnc3nc[nH]c23)c1 for me?
Response: 84 AU (inactive)

Prompt: Then O=C(O)c1cc2cc(F)ccc2[nH]1 ?
Response: 24 AU (inactive)

Prompt: Could you do the same for CCCCCC1C(=O)CCC1CC(=O)O (stereo unspecified) , please?
Response: 56 AU (inactive)

Prompt: Also COc1cc(O)c(C(=O)c2ccccc2)cc1O ?
Response: 48 AU (inactive)

Prompt: Please answer likewise for CC(=O)Oc1cc(OC(C)=O)c2c(c1)O[C@H](c1ccc(OC(C)=O)c(OC(C)=O)c1)[C@H](OC(C)=O)C2
Response: 48 AU (inactive)

Prompt: Now the compound O=c1cc(-c2ccc(O)cc2)oc2cc(O[C@@H]3O[C@H](CO)[C@@H](O)[C@H](O)[C@H]3O)cc(O)c12
Response: 120 AU (inactive)

Prompt: Please answer likewise for COc1c2c(cc3occ(-c4ccc5c(c4)OCO5)c(=O)c13)OC(C)(C)C=C2
Response: 60 AU (inactive)

Prompt: What do you have for O=C(O)c1cccnc1C(=O)O ?
Response: 84 AU (inactive)

Data provenance is PubChem BioAssay.
